Each entry below carries its reported Bmax.
# tested_on: T1, Cynomolgus monkey serum albumin (CSA) (cynomolgus monkey, UniProt A2V9Z4 25-608)
# T1 construct: Bought protein (Abcam); also called cynomolgus monkey albumin
# assay_procedure: ELISA on coated cynomolgus monkey albumin, anti-human Fc HRP, A650, one site-total binding fit
Report the figure in A650 without appending any unit label.

INSERT INTO measurements (binder, measurement_label, result_value) VALUES
  ('4A01v3-3 (Fc fusion, not shown: a dimerising Fc or GST; small tags and cut ends, also called Hz4A01v3-3) VHH: EVQLVESGGGEVQPGGSLRLSCAASGFAFSTSGMAWVRQAPGKGLEWVSTISDDARIIRYAESVKGRFTISRDNAKNTLYLQMNSLRAEDTAVYYCATYRAGSRIGSYEDYYRGQGTLVTVKP', 'Bmax', 1.35);

Here's the next entry for you.
Which value of Bmax has been reported for 4A01v3-8 (Fc fusion, also called Hz4A01v3-8; not shown: Human Fc carrier and its linker) VHH: EVQLVESGGGEVQPGGSLRLSCAASGFAFSTSGMVWVRQAPGKGLEWVSTISDDARIIRYAESVKGRFTISRDNAKNTLYLQMNSLRAEDTAVYYCATYRAGSRIGSYEDYYWGQGTLVTVKP in the records?
1.35
